meta.source: patent US20170305994A1

# target_system: T1, human DR3 (full length, on cells) (human, UniProt Q93038 25-417)
# T1 sequence: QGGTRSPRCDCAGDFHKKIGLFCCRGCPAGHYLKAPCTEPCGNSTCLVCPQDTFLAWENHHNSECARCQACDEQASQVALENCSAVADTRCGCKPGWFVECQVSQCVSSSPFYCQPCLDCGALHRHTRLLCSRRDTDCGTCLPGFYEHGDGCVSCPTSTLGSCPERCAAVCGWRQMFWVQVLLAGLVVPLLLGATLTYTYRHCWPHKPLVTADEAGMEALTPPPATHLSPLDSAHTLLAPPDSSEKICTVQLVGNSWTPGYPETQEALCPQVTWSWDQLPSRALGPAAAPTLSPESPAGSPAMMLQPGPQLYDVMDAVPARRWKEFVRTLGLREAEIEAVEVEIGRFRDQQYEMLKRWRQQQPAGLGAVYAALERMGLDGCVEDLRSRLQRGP
# method_notes: cell-based or functional assay
readout_label: IFN-γ, TL1A-costimulated RA SF cells, Fab 0.3 µg/mL (pg/mL)

binder	observed
0173 (humanized IgG1 Fab of 0072; HC T28A S49A Y91S; LC Q3A T5A S60A M4L) (Fab, V domains shown) VH: EVQLVESGGGLVQPGGSLRLSCAASGFTFSNYDMSWVRQAAGKGLEWVSAFSSDGYTFYPGAVKGRFTISRENAKNSLYLQMNSLRAGDTAVYYCARHADYANSPVMDYWGQGTLVTVSS VL: DIALAQSPSSLSASVGDRVTITCRASKSVSTSGYSYMHWYQQKPGKAPKLLIYLASNLEAGVPSRFSGSGSGTDFTLTISSLQPEDFATYYCQHSRELPLTFGGGTKVEIK	992
0118 (chimeric Fab of 27F16, human IgG1 constant domain) (Fab, V domains shown) VH: EVQLVESGGDFVKPGGSLKLSCAASGFTFNNYGMSWVRQTPDKRLEWVAAISSGVTYTYYPDTVKGRFTISRDNAKNTLYLHMSSLKSEDTAMYYCGRHDDYGNHFDYWGQGTTLTVSS VL: DIVMTQSPSSLAMSLGQRVTMNCKSSQSLLNSHNQKNYLAWYQQKPGQSPKLLVYFASSRESGVPDRFIGSGSGTDFTLTISSVQAEDLADYFCQQHYSTPFTFGSGTKLEIKR	2120
0170 (humanized IgG1 Fab of 0072; HC T28A S49A Y91; LC Q3A T5A S60A M4) (Fab, V domains shown) VH: EVQLVESGGGLVQPGGSLRLSCAASGFTFSNYDMSWVRQAAGKGLEWVSAFSSDGYTFYPGAVKGRFTISRENAKNSLYLQMNSLRAGDTAVYYCARHADYANYPVMDYWGQGTLVTVSS VL: DIAMAQSPSSLSASVGDRVTITCRASKSVSTSGYSYMHWYQQKPGKAPKLLIYLASNLEAGVPSRFSGSGSGTDFTLTISSLQPEDFATYYCQHSRELPLTFGGGTKVEIK	1300
